molecular target: IRE1α (Homo sapiens, UniProt O75460, D688N); construct: containing the kinase and RNase domains (KR, AA G547-1L977, D688N); made in house; host or cells: Sf9 insect cells; experiment: IRE1α TR-FRET competition binding assay (IRE1α HTRF); conditions: His-tagged IRE1α kinase dead construct (KR, D688N) 0.25 nM; Alexa fluor 647-labeled ATP competitive probe 2 nM; one hour at room temperature; read-out: IRE1α (alpha) HTRF (IC50)
Sequence (O75460 547-977 D688N): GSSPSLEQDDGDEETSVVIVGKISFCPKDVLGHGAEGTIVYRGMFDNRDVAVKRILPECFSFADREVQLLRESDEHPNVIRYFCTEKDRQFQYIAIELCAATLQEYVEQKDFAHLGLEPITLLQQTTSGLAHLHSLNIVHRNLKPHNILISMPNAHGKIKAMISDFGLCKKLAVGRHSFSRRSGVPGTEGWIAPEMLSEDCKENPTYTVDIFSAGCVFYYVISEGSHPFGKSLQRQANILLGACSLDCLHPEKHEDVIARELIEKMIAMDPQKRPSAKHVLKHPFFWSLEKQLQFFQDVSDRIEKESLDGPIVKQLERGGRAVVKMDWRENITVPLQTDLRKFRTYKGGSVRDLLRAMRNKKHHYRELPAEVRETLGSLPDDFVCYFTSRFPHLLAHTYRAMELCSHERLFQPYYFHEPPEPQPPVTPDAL
measured.parameter: IC50 (nM)

compound="Cc1cc(-c2ccc(NS(=O)(=O)c3cccnc3)c(F)c2)nc2cnc(N[C@H]3CC[C@H](N(C)C)CC3)nc12 [Compound 154]" tested_system="IRE1α (Homo sapiens, UniProt O75460, D688N)" recorded_result=0.21

a = Cc1cc(-c2ccc(NS(=O)(=O)c3cnccc3C(F)(F)F)c(F)c2)nc2cnc(N[C@H]3CC[C@H](N(C)C)CC3)nc12 [Compound 156]
b = Cc1cc(-c2c(F)cc(NS(=O)(=O)Cc3ccc(F)cc3)cc2F)nc2cnc(N[C@H]3CC[C@H](N(C)C)CC3)nc12 [Compound 140]
stdin: Sorting ascending by IC50, which comes first: a or b ? Lab note: record the label of whichever item you select.
stdout: a
